Tested on: Es-2
Test: Primary qHTS to identify gynecologic anti-cancer compounds using libraries of approved drugs and bioactive compounds (AID 1345084); further: nearly all actives have a fitted effect of over 55% in size; further: potency means the concentration at half of the fitted maximal effect
Settings: Gynecologic cancer cell panel viability, ATPlite luminescence, 48 h; series mostly up to 57.5 µM
Records with an inconclusive call do not appear. Calls of active or inactive are those of the source. The call rests on the fitted dose curve; in most records, active means well fitted cell-killing curve with a large enough effect; inconclusive means small, poorly fitted or top-dose-only effect, or effect the other way; inactive means flat fitted curve, though single readings scatter.
Measure: Potency

Some entries whose results are on file:
N#CC(c1ccnc(OCc2ccc(CN3CCOCC3)cc2)n1)c1nc2ccccc2s1 (stereo not drawn): inactive
O=C(C(c1ccccc1)c1ccccc1)N1CCN(CC(O)COc2cccc3ncccc23)CC1 (stereo not drawn): inactive
CC(C)(C)c1ccc(S(=O)(=O)NCc2ccc(C(=O)Nc3cccnc3)cc2)cc1: 3.55 µM (active)
Cc1c[nH]c2nccc(Oc3c(F)cc(Nc4cc(Cl)nc(N)n4)cc3F)c12: 12.6 µM (active)

// next entry
IN: Which Potency is listed for CC(=O)O[C@@H]1c2c(C)coc2C(=O)[C@@]23O[C@@H]2CC[C@H](C)[C@@]13C ?
OUT: inactive
